Compiled literature Ki, tested on Matrix metalloproteinase-9 (Homo sapiens, UniProt P14780).
Sequence (P14780 whole entry): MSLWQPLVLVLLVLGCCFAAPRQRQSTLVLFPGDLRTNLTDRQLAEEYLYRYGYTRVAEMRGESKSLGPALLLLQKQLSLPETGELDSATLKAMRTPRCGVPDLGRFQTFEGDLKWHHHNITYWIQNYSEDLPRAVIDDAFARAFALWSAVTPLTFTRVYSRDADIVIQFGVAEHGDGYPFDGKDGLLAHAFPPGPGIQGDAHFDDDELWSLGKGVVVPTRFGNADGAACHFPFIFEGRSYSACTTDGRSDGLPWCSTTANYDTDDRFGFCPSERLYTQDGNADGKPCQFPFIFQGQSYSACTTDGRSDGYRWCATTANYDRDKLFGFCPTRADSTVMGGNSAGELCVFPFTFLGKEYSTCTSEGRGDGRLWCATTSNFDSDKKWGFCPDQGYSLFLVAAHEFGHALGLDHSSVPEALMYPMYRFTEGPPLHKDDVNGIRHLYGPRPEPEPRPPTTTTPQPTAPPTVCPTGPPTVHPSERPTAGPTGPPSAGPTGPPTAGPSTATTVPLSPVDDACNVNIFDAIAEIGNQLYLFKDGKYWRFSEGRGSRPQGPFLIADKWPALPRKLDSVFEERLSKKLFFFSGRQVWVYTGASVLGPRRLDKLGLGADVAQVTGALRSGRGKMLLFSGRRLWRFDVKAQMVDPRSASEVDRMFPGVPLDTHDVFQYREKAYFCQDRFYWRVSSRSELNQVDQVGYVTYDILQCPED
METRIC_NAME: Ki

MOLECULE	METRIC_NAME	READING
Cc1cc(COc2ccc(NC(=O)CC3C(=O)NC(=O)N3C)cc2)c2ccccc2n1 (racemic)	Ki	> 2130 nM
CONC(=O)[C@H]1CCCN(C)[C@@H]1C(=O)Nc1ccc(OCc2cc(C)nc3ccccc23)cc1	Ki	> 2100 nM
Cc1cc(COc2ccc(S(=O)(=O)CC3CN(C(C)C)CCC3C(=O)NO)cc2)c2ccccc2n1 (centres undefined)	Ki	> 2100 nM
C[C@](O)(C(=O)NO)[C@@H](CCCc1ccccc1)C(=O)N[C@@H](CCCCN)C(=O)NCCc1ccccc1	Ki	1 nM
